src = patent US20130029928A1

# Method: Phase I study CXR1002-001: plasma pharmacokinetics (LC-MS/MS)
# Assay type: in vivo, human
# Measurement Parameters: human, plasma, oral, 600 mg, Patient 018, 600 mg, person, plasma, 339 hr; read-out: Concentration
Measured Attribute: concentration at 339 h

| Smiles Input | Measured Attribute | Reported |
| --- | --- | --- |
| O=C(O)C(F)(F)C(F)(F)C(F)(F)C(F)(F)C(F)(F)C(F)(F)C(F)(F)F | concentration at 339 h | 563 µM |

* * *

# Method: Phase I study CXR1002-001: plasma pharmacokinetics (LC-MS/MS)
# Type: in vivo, human
# Measurement Parameters: human, plasma, oral, 50 mg, Patient 002 Dose 50 mg; 24 hr; read-out: Concentration
# Text: PK samples, PD (fasting) samples, blood glucose, and blood triglyceride samples, were taken over a 6-week period. Dose limiting toxicity (DLT) will be based on the toxicity assessments over the first 3-week period of the repeat dosing schedule. […]

| Smiles Input | Measurement Unit | concentration at 24 h |
| --- | --- | --- |
| O=C(O)C(F)(F)C(F)(F)C(F)(F)C(F)(F)C(F)(F)C(F)(F)C(F)(F)F | µM | 14.3 |

* * *

# Method: Phase I study CXR1002-001: plasma pharmacokinetics (LC-MS/MS)
# Type: in vivo, human
# Measurement Parameters: human, plasma, oral, 300 mg, Patient 014 Dose 300 mg; 336 hr (Day 15); read-out: Concentration
Measured Attribute: concentration at 336 h (µM)

| Smiles Input | Measured Attribute | Measurement Unit | Reported |
| --- | --- | --- | --- |
| O=C(O)C(F)(F)C(F)(F)C(F)(F)C(F)(F)C(F)(F)C(F)(F)C(F)(F)F | concentration at 336 h | µM | 173 |

* * *

# Method: Phase I study CXR1002-001: plasma pharmacokinetics (LC-MS/MS)
# Type: in vivo, human
# Measurement Parameters: human, plasma, oral, 300 mg, Patient 011 Dose 300 mg; 338 hr; read-out: Concentration

| Molecule | concentration at 338 h (µM) |
| --- | --- |
| O=C(O)C(F)(F)C(F)(F)C(F)(F)C(F)(F)C(F)(F)C(F)(F)C(F)(F)F [CXR1002] | 160 |

* * *

# Method: Phase I study CXR1002-001: plasma pharmacokinetics (LC-MS/MS)
# Type: in vivo, human
# Measurement Parameters: human, plasma, po, 1200 mg, Patient 038, 1200 mg weekly oral dose, Time 842 hr; read-out: Concentration (plasma level)
# Excerpt: PK samples, PD (fasting) samples, blood glucose, and blood triglyceride samples, were taken over a 6-week period. Dose limiting toxicity (DLT) will be based on the toxicity assessments over the first 3-week period of the repeat dosing schedule. […]

| Smiles Input | concentration at 842 h (µM) |
| --- | --- |
| O=C(O)C(F)(F)C(F)(F)C(F)(F)C(F)(F)C(F)(F)C(F)(F)C(F)(F)F | 895 |

* * *

# Method: Phase I study CXR1002-001: plasma pharmacokinetics (LC-MS/MS)
# Format: in vivo, human
# Measurement Parameters: human, plasma, po, 1200 mg, Patient 038, 1200 mg weekly oral dose, Time 672 hr (Day 29); read-out: Concentration (plasma level)

| Smiles Input | Measurement Unit | concentration at 672 h |
| --- | --- | --- |
| O=C(O)C(F)(F)C(F)(F)C(F)(F)C(F)(F)C(F)(F)C(F)(F)C(F)(F)F | µM | 682 |

* * *

# Method: Phase I study CXR1002-001: plasma pharmacokinetics (LC-MS/MS)
# Type: in vivo, human
# Measurement Parameters: human, plasma, oral, 450 mg, Patient 015 Dose 450 mg; 840 hr (Day 36); read-out: Concentration
Measured Attribute: concentration at 840 h

| Compound | Reported |
| --- | --- |
| O=C(O)C(F)(F)C(F)(F)C(F)(F)C(F)(F)C(F)(F)C(F)(F)C(F)(F)F [CXR1002] | 575 µM |

* * *

# Method: Phase I study CXR1002-001: plasma pharmacokinetics (LC-MS/MS)
# Format: in vivo, human
# Measurement Parameters: human, plasma, oral, 750 mg, Patient 026, 750 mg, person, plasma, 674 hr; read-out: Concentration
# Source text: PK samples, PD (fasting) samples, blood glucose, and blood triglyceride samples, were taken over a 6-week period. Dose limiting toxicity (DLT) will be based on the toxicity assessments over the first 3-week period of the repeat dosing schedule. […]
Measured Attribute: concentration at 674 h (µM)

| Compound | Measured Attribute | Measurement Unit | Reported |
| --- | --- | --- | --- |
| O=C(O)C(F)(F)C(F)(F)C(F)(F)C(F)(F)C(F)(F)C(F)(F)C(F)(F)F [CXR1002] | concentration at 674 h | µM | 606 |

* * *

# Method: Phase I study CXR1002-001: plasma pharmacokinetics (LC-MS/MS)
# Type: in vivo, human
# Measurement Parameters: human, plasma, oral, 100 mg, Patient 005 Dose 100 mg; 674 hr; read-out: Concentration

| Smiles Input | concentration at 674 h / µM |
| --- | --- |
| O=C(O)C(F)(F)C(F)(F)C(F)(F)C(F)(F)C(F)(F)C(F)(F)C(F)(F)F | 99.7 |

* * *

# Method: Phase I study CXR1002-001: plasma pharmacokinetics (LC-MS/MS)
# Type: in vivo, human
# Measurement Parameters: human, plasma, oral, 750 mg, Patient 028, 750 mg, person, plasma, 192 hr (Day 9); read-out: Concentration
# Excerpt: PK samples, PD (fasting) samples, blood glucose, and blood triglyceride samples, were taken over a 6-week period. Dose limiting toxicity (DLT) will be based on the toxicity assessments over the first 3-week period of the repeat dosing schedule. […]

| Smiles Input | Measurement Unit | concentration at 192 h |
| --- | --- | --- |
| O=C(O)C(F)(F)C(F)(F)C(F)(F)C(F)(F)C(F)(F)C(F)(F)C(F)(F)F | µM | 295 |

* * *

# Method: Phase I study CXR1002-001: plasma pharmacokinetics (LC-MS/MS)
# Format: in vivo, human
# Measurement Parameters: human, plasma, oral, 1200 mg, Patient 033, 1200 mg, person, plasma, 842 hr; read-out: Concentration
# Source text: PK samples, PD (fasting) samples, blood glucose, and blood triglyceride samples, were taken over a 6-week period. Dose limiting toxicity (DLT) will be based on the toxicity assessments over the first 3-week period of the repeat dosing schedule. […]

| Smiles Input | concentration at 842 h (µM) |
| --- | --- |
| O=C(O)C(F)(F)C(F)(F)C(F)(F)C(F)(F)C(F)(F)C(F)(F)C(F)(F)F | 1110 |

* * *

# Method: Phase I study CXR1002-001: plasma pharmacokinetics (LC-MS/MS)
# Format: in vivo, human
# Measurement Parameters: female, human, plasma, oral, Female, plasma, 840 hr (Day 36); read-out: Concentration
Measured Attribute: concentration at 840 h (µM)

| Compound | Measured Attribute | Reported |
| --- | --- | --- |
| O=C(O)C(F)(F)C(F)(F)C(F)(F)C(F)(F)C(F)(F)C(F)(F)C(F)(F)F [CXR1002] | concentration at 840 h | 434 |

* * *

# Method: Phase I study CXR1002-001: plasma pharmacokinetics (LC-MS/MS)
# Assay type: in vivo, human
# Measurement Parameters: human, plasma, po, 1000 mg, Patient 041, 1000 mg weekly oral dose, Time 2 hr; read-out: Concentration (plasma level)

| Molecule | concentration at 2 hr (µM) |
| --- | --- |
| O=C(O)C(F)(F)C(F)(F)C(F)(F)C(F)(F)C(F)(F)C(F)(F)C(F)(F)F [CXR1002] | 223 |

* * *

# Method: Phase I study CXR1002-001: plasma pharmacokinetics (LC-MS/MS)
# Assay type: in vivo, human
# Measurement Parameters: human, plasma, oral, 750 mg, Patient 026, 750 mg, person, plasma, 842 hr; read-out: Concentration
Measured Attribute: concentration at 842 h

| Smiles Input | Reported |
| --- | --- |
| O=C(O)C(F)(F)C(F)(F)C(F)(F)C(F)(F)C(F)(F)C(F)(F)C(F)(F)F | 824 µM |

* * *

# Method: Phase I study CXR1002-001: plasma pharmacokinetics (LC-MS/MS)
# Format: in vivo, human
# Measurement Parameters: human, plasma, po, 1200 mg, Patient 036, 1200 mg weekly oral dose, Time 504 hr (Day 22); read-out: Concentration (plasma level)

| Smiles Input | concentration at 504 h (µM) |
| --- | --- |
| O=C(O)C(F)(F)C(F)(F)C(F)(F)C(F)(F)C(F)(F)C(F)(F)C(F)(F)F | 969 |
